Details: rabbit, 1 h
readout: The cumulative amount of test compounds (mg)
Give the quantity in mg, number only.

Q) For the compound CCCc1c(OCCCS(=O)(=O)c2ccc(C(=O)CCC(=O)O)cc2)ccc(C(C)=O)c1O [Parent drug-1] , give its reported The cumulative amount of test compounds.
A) 0.000

Q) For the compound O=C(O)Cc1ccccc1Nc1c(Cl)cccc1Cl [Parent drug-8] , give its reported The cumulative amount of test compounds.
A) 0.000

Q) For the compound O=C(O)C(c1ccc(OCc2ccc3ccccc3n2)cc1)C1CCCC1 (stereo not shown) [Parent drug-5] , give its reported The cumulative amount of test compounds.
A) 0.001
